Measured PPARγ activity (% of rosiglitazone), listed per entry for reference.
Target: Mouse PPARγ (Mus musculus, UniProt P37238)
Construct: endogenous in cells; host or cells: 3T3-L1 fibroblasts
Sequence (P37238 1-505): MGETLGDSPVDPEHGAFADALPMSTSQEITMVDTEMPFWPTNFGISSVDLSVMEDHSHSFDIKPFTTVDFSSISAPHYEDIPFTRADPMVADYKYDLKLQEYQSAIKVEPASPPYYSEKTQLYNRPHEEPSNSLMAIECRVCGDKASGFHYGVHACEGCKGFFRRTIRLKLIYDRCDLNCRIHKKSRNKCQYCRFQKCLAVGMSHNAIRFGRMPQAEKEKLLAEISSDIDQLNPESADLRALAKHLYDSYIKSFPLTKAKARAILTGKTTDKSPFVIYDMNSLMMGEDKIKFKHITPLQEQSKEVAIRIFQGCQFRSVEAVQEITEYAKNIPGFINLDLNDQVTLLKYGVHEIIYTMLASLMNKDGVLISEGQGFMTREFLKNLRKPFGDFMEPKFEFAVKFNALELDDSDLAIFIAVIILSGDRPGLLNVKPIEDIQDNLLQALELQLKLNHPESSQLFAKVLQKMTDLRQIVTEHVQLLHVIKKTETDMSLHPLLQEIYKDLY
Assay: Mouse PPARγ assay (TransAM PPARγ ELISA, 3T3-L1 fibroblasts)
Assay type: cell-based
Conditions: test compound 50 μM, 72 hrs
Property label: PPARγ activity (% of rosiglitazone)

INSERT INTO assay_data (item_smiles, property_label, recorded_result) VALUES
  ('Cc1ccc(S(=O)(=O)Nc2cnc(Oc3cc4ccccc4cn3)c(Cl)c2)cc1', 'PPARγ activity (% of rosiglitazone)', '18.85%'),
  ('O=S(=O)(Nc1cnc(Oc2cc3ccccc3cn2)c(Cl)c1)c1ccc(Cl)c(Cl)c1', 'PPARγ activity (% of rosiglitazone)', '12.57%'),
  ('O=S(=O)(Nc1cnc(Oc2cc3ccccc3cn2)c(Cl)c1)c1ccc(F)cc1Cl', 'PPARγ activity (% of rosiglitazone)', '0%'),
  ('O=S(=O)(Nc1cnc(Oc2cc3ccccc3cn2)c(Cl)c1)c1ccc(Cl)cc1Cl', 'PPARγ activity (% of rosiglitazone)', '12.4%'),
  ('O=S(=O)(Nc1cnc(Oc2cnc3ccccc3c2)c(Cl)c1)c1ccc(F)cc1F', 'PPARγ activity (% of rosiglitazone)', '8.17%'),
  ('COc1ccc(S(=O)(=O)Nc2cnc(Oc3cnc4ccccc4c3)c(Cl)c2)cc1OC', 'PPARγ activity (% of rosiglitazone)', '8.18%');
